# System: IGROV1 ovarian
# assay_explanation: NCI-60 one-dose screen, 48 h
# condition_label: 10 µM unless noted
Compounds without any hit were thinned out: in the full panel of roughly 83,000, 20% have a hit. Active and inactive are the calls of the source. Rule for the calls: active = growth percent below 10; inactive = the rest.
Hello, when you answer, please use one of the following outcomes: active, inactive

[
  {
    "compound": "COc1cc(C(=O)c2c(-c3ccccc3)oc3ccccc23)cc(OC)c1O",
    "class_name": "inactive"
  }
]

Prompt: # lookup: test call for `O=C1C(Nc2ccc(Br)cc2)=C(I)C(=O)c2ncccc21`
Response: active

Prompt: # lookup: test call for `CCOC(=O)c1cc(C(=O)c2cc(OC)cc(OC)c2)n2ncccc12`
Response: inactive

Prompt: # lookup: test call for `COc1ccc2c(c1)c(-c1nc(-c3cn(C)c4ccncc34)cs1)cn2C`
Response: active

Prompt: # lookup: test call for `COc1ccc(S(=O)(=O)Oc2ccc(-c3sc4cc(OS(=O)(=O)c5ccc(OC)cc5)ccc4c3C(=O)c3ccc(OCCN4CCCCC4)cc3)cc2)cc1`
Response: inactive

Prompt: # lookup: test call for `COc1ccc(NC(=O)c2ccc(Cl)cc2Cl)cc1`
Response: inactive

Prompt: # lookup: test call for CCN1C(=O)N(CC)C2C1NC(=S)N2/N=C/C=C/c1cccs1 (stereo not drawn)
Response: inactive

Prompt: # lookup: test call for `Nc1ccc(Cl)c2c(=O)c3ccccc3[nH]c12`
Response: inactive
